# targetDesc: MK2 (Homo sapiens)
# Sequence (P49137 whole entry): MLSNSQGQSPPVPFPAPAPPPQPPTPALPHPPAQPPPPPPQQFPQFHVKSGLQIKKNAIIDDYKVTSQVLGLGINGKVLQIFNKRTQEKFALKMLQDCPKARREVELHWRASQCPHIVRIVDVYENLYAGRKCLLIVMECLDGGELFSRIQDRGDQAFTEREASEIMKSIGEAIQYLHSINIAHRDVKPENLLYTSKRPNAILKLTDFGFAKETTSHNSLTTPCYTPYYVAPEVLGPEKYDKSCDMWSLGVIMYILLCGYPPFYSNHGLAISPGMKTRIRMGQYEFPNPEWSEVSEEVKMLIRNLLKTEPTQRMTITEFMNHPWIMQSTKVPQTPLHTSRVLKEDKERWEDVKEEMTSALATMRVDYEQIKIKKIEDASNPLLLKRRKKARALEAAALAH
# procedureDetails: MK2 degradation in human THP-1 monocytic cells (MSD, 24 h)
# Assay type: cell-based
# Parameters: endogenous in cells
# experimentalParameters: THP-1 cells, read-out: MK2 MSD THP-1 degradation 24 h GMean External Abs DC50
Would you kindly list DC50 for each of these compounds?

// solved cases for DC50 follow
>  <compound>
Cn1c(=O)n(C2CCC(=O)NC2=O)c2cccc(CCCCCN3CCN(c4ccc(F)c(-c5cc(-c6cc7c([nH]6)CCNC7=O)ccn5)c4)CC3)c21 (centres unmarked) [Compound I-134]

>  <measurement>
> 100 nM

$$$$
>  <compound>
C[C@@H]1CNc2c(sc3ccc4nc(-c5cccc(N6CCC(CN7CCN(c8ccc9c(c8)CN(C8CCC(=O)NC8=O)C9=O)CC7)CC6)c5)ccc4c23)C(=O)N1 (some centres unmarked) [Compound I-304]

>  <measurement>
1 to 10 nM

$$$$
>  <compound>
Cn1c(=O)n(C2CCC(=O)NC2=O)c2ccc(N3CCC(CN4CCN(c5ccc6cc(-c7cc(Nc8ccnc(N)n8)cc8cn[nH]c78)oc6c5)CC4)CC3)cc21 (centres unmarked) [Compound I-454]

>  <measurement>
> 100 nM

$$$$
>  <compound>
Cn1c(=O)n(C2CCC(=O)NC2=O)c2cccc(CCCN3CCN(c4ccc(-c5cc(-c6cc7c([nH]6)C6(CC6)CNC7=O)ccn5)cn4)CC3)c21 (centres unmarked) [Compound I-199]

>  <measurement>
1 to 10 nM

$$$$
>  <compound>
C[C@@H]1CNc2c(sc3ccc4nc(-c5ccc(N6CCN(CCCCOc7ccc(N8CCC(=O)NC8=O)cc7)CC6)nc5)ccc4c23)C(=O)N1 [Compound I-437]

>  <measurement>
1 to 10 nM

$$$$

Hello, I would appreciate it if you could give DC50 for each entry below.
1. C[C@@H]1CNc2c(sc3ccc4nc(-c5ccc(N6CCN(CCC7CCN(c8cccc9c8n(C)c(=O)n9C8CCC(=O)NC8=O)CC7)CC6)cc5)ccc4c23)C(=O)N1 (some centres unmarked) [Compound I-127]
2. C[C@@H]1CNc2c(sc3ccc4nc(-c5ccc(N6CCN(CC7CCN(c8cccc(C9CCC(=O)NC9=O)c8)CC7)CC6)nc5)ccc4c23)C(=O)N1 (some centres unmarked) [Compound I-420]
3. C[C@@H]1CNc2c(sc3ccc4nc(-c5cc(N6CCC(CN7CCN(c8cccc9c8n(C)c(=O)n9C8CCC(=O)NC8=O)CC7)CC6)ccc5F)ccc4c23)C(=O)N1 (some centres unmarked) [Compound I-285]
4. Cn1c(=O)n(C2CCC(=O)NC2=O)c2ccc(N3CC(CN4CCN(c5ccc(-c6cc(-c7cc8c([nH]7)C7(CC7)CNC8=O)ccn6)c(F)c5)CC4)C3)cc21 (centres unmarked) [Compound I-425]
5. Cn1c(=O)n(C2CCC(=O)NC2=O)c2cccc(CCCCCCN3CCC4(CC3)CNC(=O)c3c4[nH]c4c3CCc3cnc(-c5ccccc5F)cc3-4)c21 (centres unmarked) [Compound I-300]
6. O=C1CCN(c2cncc3c(N4CC(CN5CCN(c6ccc(-c7cc(-c8cc9c([nH]8)C8(CC8)CNC9=O)ccn7)cc6)CC5)C4)cccc23)C(=O)N1 [Compound I-188]

1. 1 to 10 nM
2. 1 to 10 nM
3. 1 to 10 nM
4. < 1 nM
5. > 100 nM
6. 1 to 10 nM

###

Would you kindly list DC50 for each of these molecules?
# targetDesc: MK2 (Homo sapiens)
# procedureDetails: MK2 degradation in human THP-1 monocytic cells (MSD, 24 h)
# Format: cell-based
# Parameters: endogenous in cells
# experimentalParameters: THP-1 cells, read-out: MK2 MSD THP-1 degradation 24 h GMean External Abs DC50

// solved cases for DC50 follow
>  <molecule>
Cn1c(=O)n(C2CCC(=O)NC2=O)c2cccc(CCCN3CCN(c4ccc(-c5cc(-c6cc7c([nH]6)C6(CCC6)CNC7=O)ccn5)cc4)CC3)c21 (stereo not drawn)

>  <DC50>
1 to 10 nM

$$$$
>  <molecule>
C[C@@H]1CNc2c(sc3ccc4nc(-c5ccc(N6CCC(CN7CCC(c8cccc9c8n(C)c(=O)n9C8CCC(=O)NC8=O)CC7)CC6)nc5)ccc4c23)C(=O)N1 (stereo partly drawn)

>  <DC50>
< 1 nM

$$$$

Hello, I would appreciate it if you could give DC50 for each entry below.
1. CCc1cc(-c2ccc3c(ccc4sc5c(c43)NC[C@@H](C)NC5=O)n2)cc(N2CCN(CC3CCN(c4ccc5c(c4)n(C)c(=O)n5C4CCC(=O)NC4=O)CC3)CC2)c1 (stereo partly drawn)
2. C[C@@H]1CNc2c(sc3ccc4nc(-c5cccc(N6CCN(CCCCCc7cccc8c7n(C)c(=O)n8C7CCC(=O)NC7=O)CC6)c5)ccc4c23)C(=O)N1 (stereo partly drawn)
3. Cn1c(=O)n(C2CCC(=O)NC2=O)c2ccc(N3CC(CN4CCN(c5ccc(-c6cc(-c7cc8c([nH]7)CCNC8=O)ccn6)c(F)c5)CC4)C3)cc21 (stereo not drawn)
4. C[C@@H]1CNc2c(sc3ccc4nc(-c5ccc(N6CCN(C[C@H]7C[C@@H](c8ccc9c(c8)n(C)c(=O)n9C8CCC(=O)NC8=O)C7)CC6)cc5)ccc4c23)C(=O)N1 (stereo partly drawn)
5. COc1cc(N2CCN(CC3CCN(c4ccc5c(c4)n(C)c(=O)n5C4CCC(=O)NC4=O)CC3)CC2)cc(-n2cc(-c3ccc4c(c3)CCNC4=O)c(N)n2)c1 (stereo not drawn)
6. Cc1cc(-c2ccc3c(ccc4sc5c(c43)NC[C@@H](C)NC5=O)n2)cnc1N1CCN(CC2CCN(c3ccc4c(c3)n(C)c(=O)n4C3CCC(=O)NC3=O)CC2)CC1 (stereo partly drawn)
7. CN1CC2(CNC(=O)c3c2[nH]c2c3CCc3cnc(-c4ccc(N5CCN(CCCCc6cccc7c6n(C)c(=O)n7C6CCC(=O)NC6=O)CC5)cc4F)cc3-2)C1 (stereo not drawn)
8. Cn1c(=O)n(C2CCC(=O)NC2=O)c2ccc(N3CCC(CN4CCN(c5ccc(-c6cc(-c7cc8c([nH]7)C7(CCCC7)CNC8=O)ccn6)c(F)c5)CC4)CC3)cc21 (stereo not drawn)

1. 1 to 10 nM
2. < 1 nM
3. < 1 nM
4. < 1 nM
5. > 100 nM
6. < 1 nM
7. 10 to 100 nM
8. 1 to 10 nM

Hello, I would appreciate it if you could give DC50 for each entry below.
1. C[C@@H]1CNc2c(sc3ccc4nc(-c5cccc(N6CCC(CN7CCN(CCc8cccc9c8n(C)c(=O)n9C8CCC(=O)NC8=O)CC7)CC6)c5)ccc4c23)C(=O)N1 (stereo partly drawn)
2. C[C@@H]1CNc2c(sc3ccc4nc(-c5ccc(N6CCC(CN7CCC(c8ccc9c(c8)n(C)c(=O)n9C8CCC(=O)NC8=O)CC7)CC6)cc5F)ccc4c23)C(=O)N1 (stereo partly drawn)
3. O=C1CCN(c2cncc3c(N4CCN(CC5CCN(c6ccc(-c7cc(-c8cc9c([nH]8)C8(CC8)CNC9=O)ccn7)cc6)CC5)CC4)cccc23)C(=O)N1
4. C[C@@H]1CNc2c(sc3ccc4nc(N5CCC(N6CCC7(CCN(c8ccc9c(c8)n(C)c(=O)n9C8CCC(=O)NC8=O)CC7)CC6)CC5)ccc4c23)C(=O)N1 (stereo partly drawn)
5. Cc1nc(N2CCN(CC3CCN(c4ccc5c(c4)n(C)c(=O)n5C4CCC(=O)NC4=O)CC3)CC2)ccc1-c1ccc2c(ccc3sc4c(c32)NC[C@@H](C)NC4=O)n1 (stereo partly drawn)
6. C[C@@H]1Cc2oc(-c3ccnc(-c4ccc(N5CCN(CC6CCN(c7ccc8c(c7)n(C)c(=O)n8C7CCC(=O)NC7=O)CC6)CC5)cc4)c3)cc2C(=O)N1 (stereo partly drawn)
7. CN1CCc2[nH]c(-c3ccnc(-c4ccc(N5CCN(CC6CCN(c7ccc8c(c7)n(C)c(=O)n8C7CCC(=O)NC7=O)CC6)CC5)cc4)c3)cc2C1=O (stereo not drawn)

["< 1 nM", "< 1 nM", "10 to 100 nM", "1 to 10 nM", "< 1 nM", "> 100 nM", "> 100 nM"]

Hello, I would appreciate it if you could give DC50 for each entry below.
1. Cc1cc(-c2cc(-c3cc4c([nH]3)C3(CC3)CNC4=O)ccn2)cc(C)c1N1CCN(CC2CCN(c3ccc4c(c3)n(C)c(=O)n4C3CCC(=O)NC3=O)CC2)CC1 (stereo not drawn)
2. C[C@@H]1CNc2c(sc3ccc4nc(N5CCC(CN6CCN(c7ccc8c(c7)n(C)c(=O)n8C7CCC(=O)NC7=O)CC6)CC5)ccc4c23)C(=O)N1 (stereo partly drawn)
3. Cc1cc(-c2cc(-c3cc4c([nH]3)CCNC4=O)ccn2)cc(C)c1N1CCN(CC2CCN(c3ccc4c(c3)n(C)c(=O)n4C3CCC(=O)NC3=O)CC2)CC1 (stereo not drawn)
4. CCc1cc(-c2cc(-c3cc4c([nH]3)C3(CC3)CNC4=O)ccn2)cc(CC)c1N1CCN(CC2CCN(c3ccc4c(c3)n(C)c(=O)n4C3CCC(=O)NC3=O)CC2)CC1 (stereo not drawn)

["< 1 nM", "1 to 10 nM", "1 to 10 nM", "> 100 nM"]
